assay: Agilent ZORBAX 300 SB-C18, 150 × 1 mm, 3.5 µm; A: water + 0.01% heptafluorobutyric acid; B: acetonitrile + 0.01% heptafluorobutyric acid; gradient (min/%B) 0/0 100/90; conditions: stereoisomer not certain
measurementName: LC retention time (min)

> print(dat)
                                    molecule    measurementname  unitlabel  endpointvalue
 1                Cn1c(=O)c2c(ncn2C)n(C)c1=O  LC retention time        min           7.49
 2  Cc1ccc2c(c1)C1CN(C)CCC1N2C(=S)NC1CCCCC1 (stereo unspecified)  LC retention time        min           12.2
 3                c1ccc(-n2nnnc2-n2ccnc2)cc1  LC retention time        min           9.59
 4  CC(C)(C)NCC(O)COc1cccc2c1CC(O)C(O)C2 (stereo unspecified)  LC retention time        min           8.31
 5  CC(C)(C)c1ccc(C(=O)N2CCN(Cc3ccccc3)CC2)cc1  LC retention time        min           11.1
 6                   C=CCNC1(c2ccccc2)CCCCC1  LC retention time        min           9.71
 7                 COc1cc(N)c(N2CCOCC2)cc1OC  LC retention time        min           7.99
 8  c1cncc(CN=Nc2nc(N3CCCCC3)nc(N3CCCCC3)n2)c1  LC retention time        min           11.5
 9  CCOC(=O)c1ccc(NC(=O)C2CC(=O)N(C3CCCCC3)C2)cc1 (stereo unspecified)  LC retention time        min           13.2
10           c1ccc(CN(CC2=NCCN2)c2ccccc2)cc1  LC retention time        min           10.1
11                                    COCCCN  LC retention time        min           5.72
12                         CC(C)N(C)C(C)(C)C  LC retention time        min            7.1
13  COc1ccc(NC(=O)Nc2ccc(OCC(=O)N3CCOCC3)cc2)cc1  LC retention time        min             10
14                                CCN1CCNCC1  LC retention time        min           6.67
15  CN1CCC23CCCCC2C1Cc1ccc(O)cc13 (stereo unspecified)  LC retention time        min           9.18
16  COc1c(C)cccc1C(=O)NC(CC(C)C)C(N)=O (stereo unspecified)  LC retention time        min           11.2
17                     CCn1c2ccccc2c2ccccc21  LC retention time        min           17.5
18                               CN(C)C=CC=O  LC retention time        min           5.98
19         CCNC(=O)c1ccc(CN2CCc3ccccc3C2)cc1  LC retention time        min           8.52
20                         CC(=O)C=Cc1ccccc1  LC retention time        min           11.8
21  Cc1ccc(C=C2CN(C)CC(=Cc3ccc(C)cc3)C2=O)cc1  LC retention time        min           12.3
22  CC(NC(=O)c1ccccc1)C(=O)O (stereo unspecified)  LC retention time        min              8
23  CCn1c2ccccc2c2cc(C=NNC(=O)c3ccc(C)cc3)ccc21  LC retention time        min           15.7
24                        CNC(=O)c1ccc(N)cc1  LC retention time        min           6.25
25                             CN(C)C1CCCCC1  LC retention time        min           7.57
26  Oc1cccc(-c2cc(-c3ccccc3)c3c(ccc4ncccc43)n2)c1  LC retention time        min           13.7
